settings: buffer; pH 7.4; 200.0 µM
observedProperty: solubility kinetic (µg/mL)
Answers are plain numbers, in µg/mL.

Consider the following illustrative entries.
CC(C)OCCCNC(=O)C1CC(=O)N(CCc2ccccc2)C1 (centres undefined); 48.9
NC(=O)c1cccnc1Oc1ccccc1; 28.8
CNc1nc(C)c([N+](=O)[O-])c(Nc2ccc(OC)cc2)n1; 0.5

Please state solubility kinetic for every compound in the list that follows.
1. O=C(Cc1ccc([N+](=O)[O-])cc1)Nc1ccc(Cl)cc1
2. Cc1ccc(NC(=O)COc2ccc(C(=O)c3ccccc3)cc2)c(O)c1
3. O=C(CNC(=O)c1ccc(OC(F)F)cc1)NC1CCCc2ccccc21 (centres undefined)
4. CNCCc1ccc(O)c(O)c1.Cl
5. CCN(CC)C(=O)c1csc(Nc2cccc3ccccc23)n1
6. O=C(COC(=O)c1ccc(Cl)cc1[N+](=O)[O-])NC(=O)c1ccccc1
7. Cc1ccc(C)c(NC(=O)COC(=O)CC2CC3CCC2C3)c1 (centres undefined)
8. Cc1cc2c(c(=O)o1)C(CCC1CCCCC1)C(C#N)=C(N)O2 (centres undefined)

Response:
1: 4.5; 2: 2.8; 3: 5.6; 4: 17.2; 5: 7.2; 6: 4.8; 7: 20.4; 8: 8

Please state solubility kinetic for every compound in the list that follows.
1. O=C(Nc1cccc(Cl)c1)c1cc(-c2ccco2)on1
2. Cc1ccc(C)c(NC(=O)CN(C)C(C)C(=O)N2CCCC2)c1 (centres undefined)
3. CC1CCN(C(=O)CN2C(=O)c3cccc4cccc(c34)C2=O)CC1

Response:
0.8
42.1
2.1

Please state solubility kinetic for every compound in the list that follows.
1. N#CCCN(Cc1ccncc1)C(=S)NC1CC2C=CC1C2 (centres undefined)
2. Br.COC(=O)c1ccc(CN2CCSC2=N)cc1
3. O=C(NC(=S)Nc1ccc2ncccc2c1)c1ccccc1
4. COc1ccc(-c2cc(-c3ccccc3)c(C#N)c(=S)[nH]2)cc1
5. Cc1ccccc1NC(=O)COC(=O)CCSc1ccccc1
6. CCOc1ccc2oc(C(=O)OCC(=O)NC3CC3)c(C)c2c1
7. CCN1CCN(C(=O)C(=O)c2c(C)[nH]c3ccccc23)CC1

Response:
46.3
49.6
1.4
3.2
13.1
1.5
36.1

----------
settings: buffer; pH 7.4; 200.0 µM
observedProperty: solubility kinetic (mg/mL)
Give bare numbers, in mg/mL.

Cl.OC(CNCC#Cc1ccccc1)c1ccccc1 (configuration not stated); 0.0359

Please state solubility kinetic for every compound in the list that follows.
1. COc1ccc(C(=O)N2CCCc3ccccc32)cc1Br
2. COc1ccc(C(C)=O)cc1CC(=O)NC1CCCCCC1
3. CC(C)[C@H](NC(=O)c1cccc(CN(Cc2ccccc2)C(=O)/C=C/c2ccccc2)c1)C(=O)O
4. Cl.O=C(CNCc1ccccc1)NC1C2CC3CC(C2)CC1C3 (configuration not stated)
5. CCOc1ccccc1NC(=S)NCCCn1ccnc1
6. CC(NC(=O)COC(=O)/C=C/c1cccc(F)c1)c1ccccc1 (configuration not stated)

Response:
[0.0264, 0.0392, 0.069, 0.0502, 0.0421, 0.0061]

----------
Please respond with reported solubility kinetic for every item in the list.
settings: buffer; pH 7.4; 200.0 µM
Answers are plain numbers, in mg/mL.

Please state solubility kinetic for every compound in the list that follows.
1. O=C(C1CCCO1)N1CCN(c2ccccn2)CC1 (stereo unspecified)
2. O=C(CCC(=O)c1ccccc1)Nc1ccccc1
3. Cc1c(C(=O)OCC(=O)N2C(C)CCCC2C)oc2ccccc12 (stereo unspecified)
4. O=C(Nc1ccccc1-c1ccccc1)C1CCCC1

Response:
0.0368
0.0225
0.0441
0.0324
